Target: T1, human CCL17 (human, UniProt Q92583 24-94)
T1 construct: Biotinylated in the Fab ELISAs; also called huCCL17; Bt-huCCL17
T1 sequence: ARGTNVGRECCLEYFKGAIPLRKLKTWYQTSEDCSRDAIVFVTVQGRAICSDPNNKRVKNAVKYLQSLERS
Assay: not stated in the legend (affinities by MSD-SEA in Examples 3 and 4)
pKd: −log10 of the molar value.

- BINDER: "C17B243 (antibody, V domains shown, Full IgG1, kappa) VH: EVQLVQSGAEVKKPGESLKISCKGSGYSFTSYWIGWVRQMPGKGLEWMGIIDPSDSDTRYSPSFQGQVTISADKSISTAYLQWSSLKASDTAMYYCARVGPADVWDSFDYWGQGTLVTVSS VL: DIVMTQSPDSLAVSLGERATINCKSSQSVLNSFDNKNDLAWYQQKPGQPPKLLIYEASTRESGVPDRFSGSGSGTDFTLTISSLQAEDVAVYYCQQHWQTPLTFGQGTKVEIK"
  pKd: "≥ 7.00"
- BINDER: "C17B236 (antibody, V domains shown, Full IgG1, kappa) VH: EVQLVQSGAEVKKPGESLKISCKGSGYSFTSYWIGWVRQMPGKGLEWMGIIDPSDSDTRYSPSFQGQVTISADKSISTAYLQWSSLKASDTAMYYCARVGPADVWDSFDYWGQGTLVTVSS VL: DIVMTQSPDSLAVSLGERATINCKSSQSVLLSPWNSNQLAWYQQKPGQPPKLLIYGASTRESGVPDRFSGSGSGTDFTLTISSLQAEDVAVYYCQQYYLIPSTFGQGTKVEIK"
  pKd: "≥ 7.00"
